test: viability loss in mouse AML12 liver cells – cell-based, single concentration, cytotoxicity control for hepatic lipid droplet formation project, confirmation (AID 463219); conditions: AML12 mouse hepatocyte viability, ATP luminescence; at 50 µM; hits give high values; cells loaded with 100 µM oleic acid;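 also: compound exposure lasted overnight at 37 °C before the ATP read; 0% = DMSO-treated cells and 100% = wells with no cells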
The other results are listed elsewhere or left out.
For each entry below, report its cytotoxicity value.
Give bare numbers, in %.

O=C1Nc2ccc(Br)cc2/C1=N/N=C/C1=C(N2CCOCC2)C(=C\c2ccccc2)/CC1
-0.325
COc1cccc(/C=C(/CC(=O)Nc2ccc(N3CCOCC3)cc2)c2nc3ccccc3s2)c1
9.53
Cc1cc(C(=O)NC2CCCc3c2cnn3-c2cccc(C)c2C)c(C)o1 (stereo unspecified)
14.5
CCOc1ccc(CCNC(=O)CCc2nnc3ccc(N4CCCC4)nn23)cc1OCC
2.1
CCOc1ccc(CCNC(=O)Nc2ccccc2)cc1OCC
12.3
COc1ccc(C(C(=O)NC(C)(C)C)N(Cc2ccc(F)cc2)C(=O)CCC(=O)Nc2cc(C)on2)cc1 (stereo unspecified)
10.5
CCCc1ccc(-c2csc(NC(=O)Cc3cccs3)n2)cc1
14
COc1ccc(/C=C(\NC(=O)c2ccc(OCC(C)C)cc2)C(=O)OCc2ccco2)cc1
7.73
Cc1ccc(N2C(=O)C(NC(=O)c3c(F)cccc3F)(C(F)(F)F)C3=C2CC(C)(C)CC3=O)cc1 (stereo unspecified)
13.2
CCCN(CCC)c1ccc(C(O)c2nnc(-c3ccccc3)o2)cc1 (stereo unspecified)
6.65

Turning to the following compound.
Exercise: Supply recorded cytotoxicity for Cn1c(=O)[nH]c(=O)c2c1nc(N1CCN(C(c3ccccc3)c3ccccc3)CC1)n2CCO here.
Key: 77.5
